measured_target: T1, hu-sCD47-6His; extracellular domain of human CD47 antigen with 6His-tag (human)
T1 construct: also called hCD47-his; soluble hCD47
test: SPR Biacore

- binder: "h20-H3-L2Y (candidate 20.27), hIgG4-S228P (antibody, V domains shown, also called H20-VH3-VL2,Y) VH: QVQLVQSGAEVKKPGASVKVSCKASGYSFTDYYINWVRQAPGQGLEWMGRIYPGIGNTYYNKKFKGRVTVTRDTSISTAHMELSSLRSDDTAVYYCARGHYGRGMDYWGQGTAVTVSS VL: DIVMTQSPDSLAVSLGERATINCKSSQSLLNSIDQKNYLAWYQQKPGQPPKLLIYYASTKESGVPDRFSGSGSGTDFTLTISSLQAEDVAVYYCQQHYSTPWTFGGGTKVEIKR"
  endpoint_unit: "s⁻¹"
  koff: 0.000584
- binder: "h20-H4-L4Y (candidate 20.29), hIgG4-S228P (antibody, V domains shown, also called H20-VH4-VL4,Y) VH: QVQLVQSGAEVKKPGSSVKVSCKASGYSFTDYYINWVRQAPGQGLEWMGRIYPGIGNTYYNKKFKGRVTITADKSTSTAYMELSSLRSEDTAVYYCARGHYGRGMDYWGQGTTVTVSS VL: DIVMTQSPDSLAVSLGERATINCKSSQSLLNSIDQKNYLAWYQQKPGQPPKLLIYYASTKESGVPDRFSGSGSGTDFTLTISSLQAEDVAVYFCQQHYSTPWTFGGGAKVEIKR"
  endpoint_unit: "s⁻¹"
  koff: 0.000761
- binder: "h20-H2-L5Y (candidate 20.26), huIgG4_S228P format (antibody, V domains shown, also called H20-VH2-VL5,Y; h2O-H2L5Y) VH: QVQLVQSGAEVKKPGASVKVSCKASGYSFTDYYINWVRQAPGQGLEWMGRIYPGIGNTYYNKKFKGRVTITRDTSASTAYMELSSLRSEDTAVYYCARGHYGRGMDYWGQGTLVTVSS VL: DIVMTQSPDSLAVSLGERATINCKSSQSLLNSIDQKNYLAWYQQKPGQPPKLLIYYASTKESGVPDRFSGSGSGTDFTLTISGLQAEDVAVYFCQQHYSTPWTFGGGTKVEIRR"
  endpoint_unit: "s⁻¹"
  koff: 0.000699
- binder: "h20-H3-L3Y (candidate 20.28), hIgG4-S228P (antibody, V domains shown, also called H20-VH3-VL3,Y) VH: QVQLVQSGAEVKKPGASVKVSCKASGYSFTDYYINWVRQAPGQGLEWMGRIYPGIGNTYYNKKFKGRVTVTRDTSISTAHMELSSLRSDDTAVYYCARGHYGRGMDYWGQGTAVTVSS VL: EIVLTQSPDSLAVSLGERATINCKSSQSLLNSIDQKNYLAWYQQKAGQSPKLLIYYASTKESGVPDRFSGSGSGTDFTLTIDSLQAEDVAVYYCQQHYSTPWTFGGGTKVEIKR"
  endpoint_unit: "s⁻¹"
  koff: 0.000573
- binder: "h20-H4-L5Y (candidate 20.30), hIgG4-S228P (antibody, V domains shown, also called H20-VH4-VL5,Y) VH: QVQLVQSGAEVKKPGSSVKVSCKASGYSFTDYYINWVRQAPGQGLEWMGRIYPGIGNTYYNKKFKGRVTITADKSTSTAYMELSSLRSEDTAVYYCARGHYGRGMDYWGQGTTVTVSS VL: DIVMTQSPDSLAVSLGERATINCKSSQSLLNSIDQKNYLAWYQQKPGQPPKLLIYYASTKESGVPDRFSGSGSGTDFTLTISGLQAEDVAVYFCQQHYSTPWTFGGGTKVEIRR"
  endpoint_unit: "s⁻¹"
  koff: 0.000693
